System: VA-ES-BJ tumor spheroid viability
Experiment: Anticancer human tumor VA-ES-BJ cell line growth inhibition; active = viability on the fitted dose curve at most 10% of control; inactive = the rest;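 note: spheroids exposed to compounds for seven days; percent of DMSO vehicle control viability so 100% = untreated growth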
Conditions: second compound 0.0003 µM; first compound 1 µM; spheroids with HUVEC and MSC
Form entry, call: pick from active, inactive

Solved entries:
1. CC(C)n1c(=O)n(C)c2cnc3cc(F)c(-c4ccc(OCCCN5CCCCC5)nc4)cc3c21 + COc1cc2c(cc1O)CCNC21CSC2c3c(OC(C)=O)c(C)c4c(c3C(COC1=O)N1C(O)C3Cc5cc(C)c(OC)c(O)c5C(C21)N3C)OCO4 :: inactive
2. Cc1cc(C)c(CNC(=O)c2cc(-c3ccc(CN4CCOCC4)cc3)cc3c2cnn3C2CCCC2)c(=O)[nH]1 + COc1cc2c(cc1O)CCNC21CSC2c3c(OC(C)=O)c(C)c4c(c3C(COC1=O)N1C(O)C3Cc5cc(C)c(OC)c(O)c5C(C21)N3C)OCO4 :: inactive

Next item in the queue.
Ask | How did this test come out for CC1COCCN1c1cc(-c2ccnn2C)c2ccnc(-c3ccn[nH]3)c2n1 (stereo unspecified) + COc1cc2c(cc1O)CCNC21CSC2c3c(OC(C)=O)c(C)c4c(c3C(COC1=O)N1C(O)C3Cc5cc(C)c(OC)c(O)c5C(C21)N3C)OCO4 ?
Reply | active

---

Tested on: VA-ES-BJ tumor spheroid viability
Experiment: Anticancer human tumor VA-ES-BJ cell line growth inhibition;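 note: spheroids exposed to compounds for seven days; percent of DMSO vehicle control viability so 100% = untreated growth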
Conditions: second compound 10 µM; first compound 3 µM; stronger effect = lower value; spheroids with HUVEC and MSC
Measure name: viability, T/C (%)
Provide the reading as a plain figure in %.

Please review the following examples before continuing.
1. CNCc1ccc(-c2cc(-c3nc(-c4ccc(S(=O)(=O)C(C)C)cc4)cnc3N)on2)cc1 + Cn1nnc2c(C(N)=O)ncn2c1=O :: 2.81
2. Cc1sc2c(c1C)C(c1ccc(Cl)cc1)=NC(CC(=O)Nc1ccc(O)cc1)c1nnc(C)n1-2 (centres undefined) + Cn1nnc2c(C(N)=O)ncn2c1=O :: 15.8
3. Cn1ncnc1[C@H]1c2n[nH]c(=O)c3cc(F)cc(c23)N[C@@H]1c1ccc(F)cc1 + Cn1nnc2c(C(N)=O)ncn2c1=O :: 7.26

Please examine the following record next.
Ask | What does the data say about its viability, T/C? Entry: O=C(c1cc(Cc2n[nH]c(=O)c3ccccc23)ccc1F)N1CCN(C(=O)C2CC2)CC1 + Cn1nnc2c(C(N)=O)ncn2c1=O
Reply | 87.4

---

System: VA-ES-BJ tumor spheroid viability
Experiment: Anticancer human tumor VA-ES-BJ cell line growth inhibition; active means viability on the fitted dose curve at most 10% of control; inactive means the rest;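 note: spheroids exposed to compounds for seven days; percent of DMSO vehicle control viability so 100% = untreated growth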
Details: second compound 94.9 pM; first compound 3.16 µM; spheroids with HUVEC and MSC
Form entry, call: pick from active, inactive

Worked examples, 5 molecules total:
1. CC(C)n1c(=O)n(C)c2cnc3cc(F)c(-c4ccc(OCCCN5CCCCC5)nc4)cc3c21 + COc1cc2c(cc1O)CCNC21CSC2c3c(OC(C)=O)c(C)c4c(c3C(COC1=O)N1C(O)C3Cc5cc(C)c(OC)c(O)c5C(C21)N3C)OCO4 :: inactive
2. Cc1cc(C)c(CNC(=O)c2cc(-c3ccc(CN4CCOCC4)cc3)cc3c2cnn3C2CCCC2)c(=O)[nH]1 + COc1cc2c(cc1O)CCNC21CSC2c3c(OC(C)=O)c(C)c4c(c3C(COC1=O)N1C(O)C3Cc5cc(C)c(OC)c(O)c5C(C21)N3C)OCO4 :: inactive
3. [2H]c1nc(C)nc([2H])c1-c1cc(NC[C@@H](C)c2cccc3c(C(=O)NC)ccnc23)ncn1 + COc1cc2c(cc1O)CCNC21CSC2c3c(OC(C)=O)c(C)c4c(c3C(COC1=O)N1C(O)C3Cc5cc(C)c(OC)c(O)c5C(C21)N3C)OCO4 :: inactive
4. CC1COCCN1c1cc(-c2ccnn2C)c2ccnc(-c3ccn[nH]3)c2n1 (stereo unspecified) + COc1cc2c(cc1O)CCNC21CSC2c3c(OC(C)=O)c(C)c4c(c3C(COC1=O)N1C(O)C3Cc5cc(C)c(OC)c(O)c5C(C21)N3C)OCO4 :: active
5. COc1cc(C)[nH]c(=O)c1CN1CCc2c(Cl)cc(C(OC)C3COC3)c(Cl)c2C1=O (stereo unspecified) + COc1cc2c(cc1O)CCNC21CSC2c3c(OC(C)=O)c(C)c4c(c3C(COC1=O)N1C(O)C3Cc5cc(C)c(OC)c(O)c5C(C21)N3C)OCO4 :: inactive

For the next question, use this molecule.
Ask | Can you look up the reported call for COc1ccc([C@@H](O)c2cc(-c3ncnc4cc(N5CCOCC5)ccc34)c(F)cc2Cl)nn1 + COc1cc2c(cc1O)CCNC21CSC2c3c(OC(C)=O)c(C)c4c(c3C(COC1=O)N1C(O)C3Cc5cc(C)c(OC)c(O)c5C(C21)N3C)OCO4 for me?
Reply | inactive
